- TARGET OR TEST SYSTEM: TTR (transthyretin) (Homo sapiens)
- TEST: percent inhibition of radiolabelled T4 binding to TTR (procedure of R. Somack et al.)
- CONDITION LABEL: [I] 10 uM; read-out: ~% T4 (percent inhibition of radiolabelled T4 binding to TTR)
Catalogue of inhibition at 10 µM values

Answered examples (5):
**Q:** Suppose we examine the compound `O=C(O)CCc1cc(I)c(O)c(I)c1` ; what inhibition at 10 µM value has been reported?
**A:** ~80%

**Q:** Reported inhibition at 10 µM for `NCCOCCOCCNC(=O)Cc1cc(I)c(O)c(I)c1` : what is it?
**A:** ~25%

**Q:** State the recorded inhibition at 10 µM for this entry: `CC(C)(C)OC(=O)NCCCCCCNC(=O)Cc1cc(I)c(O)c(I)c1`
**A:** ~40%

**Q:** Entry under review: `O=C(O)Cc1cc(I)c(O)c(I)c1` . Reported inhibition at 10 µM?
**A:** ~70%

**Q:** Entry under review: `O=C(O)Cc1cc(I)c(Oc2cc(I)c(O)c(I)c2)c(I)c1` . Reported inhibition at 10 µM?
**A:** ~90%

More entries:
**Q:** Would you kindly share the measured inhibition at 10 µM for `NCCCCCCNC(=O)Cc1cc(I)c(O)c(I)c1` ?
**A:** ~15%

**Q:** Which measured inhibition at 10 µM value corresponds to `OCCc1cc(I)c(O)c(I)c1` ?
**A:** ~85%

**Q:** Find the recorded inhibition at 10 µM belonging to `O=C(Cc1cc(I)c(O)c(I)c1)OCC#CCO` and report it.
**A:** ~90%

**Q:** Query: inhibition at 10 µM; subject: `CC(C)(C)OC(=O)NCCOCCOCCNC(=O)Cc1cc(I)c(O)c(I)c1`
**A:** ~45%
